Target: full-length beta-Catenin (Uniprot ID P35222) (Homo sapiens (Human)) (UniProt P35222)
Sequence (P35222 whole entry): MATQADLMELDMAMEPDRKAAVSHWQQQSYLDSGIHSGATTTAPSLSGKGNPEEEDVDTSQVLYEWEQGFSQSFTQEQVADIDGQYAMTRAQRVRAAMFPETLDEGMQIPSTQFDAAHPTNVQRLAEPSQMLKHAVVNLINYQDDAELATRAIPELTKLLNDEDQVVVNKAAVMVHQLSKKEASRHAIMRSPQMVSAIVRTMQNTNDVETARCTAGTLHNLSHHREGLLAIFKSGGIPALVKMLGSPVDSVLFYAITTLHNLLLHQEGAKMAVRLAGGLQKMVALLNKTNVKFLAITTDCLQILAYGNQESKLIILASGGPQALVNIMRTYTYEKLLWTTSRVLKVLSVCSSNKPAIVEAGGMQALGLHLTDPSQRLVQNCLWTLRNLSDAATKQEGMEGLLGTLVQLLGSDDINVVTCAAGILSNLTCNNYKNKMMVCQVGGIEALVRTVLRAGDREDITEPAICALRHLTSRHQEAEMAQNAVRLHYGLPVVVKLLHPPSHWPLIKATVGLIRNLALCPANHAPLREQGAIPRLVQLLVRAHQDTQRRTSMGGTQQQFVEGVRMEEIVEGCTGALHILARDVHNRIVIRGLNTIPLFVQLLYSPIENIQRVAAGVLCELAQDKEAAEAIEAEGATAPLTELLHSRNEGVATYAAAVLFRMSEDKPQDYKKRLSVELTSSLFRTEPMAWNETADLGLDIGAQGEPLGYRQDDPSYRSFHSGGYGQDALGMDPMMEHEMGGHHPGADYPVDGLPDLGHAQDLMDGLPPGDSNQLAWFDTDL
Experiment: fluorescence polarization competition; full-length beta-catenin; competitor 5FAM-TCF4(10-53) probe
Starred links: 1 amine or outer side, 2 acyl side, 3 side chain; linkers in the order of their positions; H or OH if unused. Positions of bridges follow the written chain, without caps; N, C: chain ends. Non-standard residues stand in square brackets, D forms with d. Primed or numbered codes have the meaning given here. PyrS2″ = (S)-3-amino-1-((pent-4-en-1-yloxy)carbonyl)pyrrolidine-3-carboxylic acid (stapling residue), C=CCCCOC(=O)N1CC[C@@](N[*:1])(C(=O)[*:2])C1; B5(4) = 2,2-bis(4-pentenyl)glycine = 2-amino-2-(pent-4-en-1-yl)hept-6-enoic acid (stitching residue), C=CCCCC(CCCC=C)(N[*:1])C(=O)[*:2]; B5(21) = 2-amino-2-(pent-4-en-1-yl)hept-6-enoic acid, bis(4-pentenyl)glycine (stitching residue), C=CCCCC(CCCC=C)(N[*:1])C(=O)[*:2]; B5″ = 2,2-bis(4-pentenyl)glycine, stitching residue, C=CCCCC(CCCC=C)(N[*:1])C(=O)[*:2]; Bta = N[C@@H](Cc1csc2ccccc12)C(=O)O; αAllylPro = C=CC[C@@]1(C(=O)O)CCCN1; tBuAla = CC(C)(C)C[C@H](N)C(=O)O; 3Thi = N[C@@H](Cc1ccsc1)C(=O)O; S8 = C=CCCCCCC[C@](C)(N)C(=O)O; Aib = CC(C)(N)C(=O)O
quantity kind: EC50 (nM)

// known answers, use as guide
| binder | EC50, nM |
| --- | --- |
| Ac-[αAllylPro]D[tBuAla][B5(4)]DDAAFL[S8][3Thi][Bta]T-NH2 (staple 1-4, 4-11) [I-1191] | 38.5 |
| Ac-[αAllylPro]D[tBuAla][B5(4)]DTAAFT[PyrS2″][3Thi][Bta]S-NH2 (staple 1-4, 4-11) [I-1170] | 15 |

(a) Ac-[αAllylPro]D[tBuAla][B5″]DDAAFL[S8][3Thi][Bta]H-NH2 (staple 1-4, 4-11) [I-1195]
(b) Ac-[αAllylPro]D[tBuAla][B5(21)]DD[Aib][Aib]FL[PyrS2″][3Thi][Bta]Q-NH2 (staple 1-4, 4-11; also: later eluting HPLC peak (staple isomer composition)) [I-1180]
Inquiry: Of a and b , whose reported EC50 is numerically smaller? In your reply, give the label of the chosen option.
Reply text: a
